Exercise: for every item that follows, state its recorded melting point.

State, in one line, measured melting point of Cc1ccc(C)c2c1[nH]c1c(NS(=O)(=O)c3ccc(Cl)s3)cccc12 [Compound 6k]
232 to 234 °C

Supply melting point value. Item: Cc1ccc(C)c2c1[nH]c1c(NS(=O)(=O)c3ccc([N+](=O)[O-])cc3)cccc12 [Compound 6e]
202 to 203 °C

Indicate its recorded melting point; the compound in question is O=S(=O)(Nc1cccc2c1[nH]c1ccccc12)c1cccc(C(F)(F)F)c1 [Compound 21b]
188 to 190 °C

Hello, please tell me recorded melting point for this one: Cc1ccc(S(=O)(=O)Nc2cccc3c(/N=N/c4ccccc4)c[nH]c23)cc1 [Compound 7b]
212 to 213 °C

Return melting point (reported value) for this compound: Cc1ccc(C)c2c1[nH]c1c(NS(=O)(=O)c3ccc(N)cc3)cccc12 [Compound 6f]
254 to 255 °C

Give a short answer stating reported melting point for COc1ccc(S(=O)(=O)Nc2cccc3c2[nH]c2ccccc23)cc1 [Compound 21a] .
204 to 206 °C

Read off the recorded melting point for O=[N+]([O-])c1ccc(S(=O)(=O)Nc2cccc3cc[nH]c23)cc1 [Compound 5e]
185 to 186 °C

Quickly give me recorded melting point for Cc1ccc(C)c2c1[nH]c1c(NS(=O)(=O)c3ccccc3[N+](=O)[O-])cccc12 [Compound 6h]
202 to 203 °C

Give a short answer stating reported melting point for O=[N+]([O-])c1ccc(/N=N/c2c[nH]c3c(NS(=O)(=O)c4ccc(Cl)cc4)cccc23)cc1 [Compound 7a] .
217 to 218 °C

Quickly give me recorded melting point for O=S(=O)(Nc1cccc2c(/N=N/c3ccccc3)c[nH]c12)c1ccc(Cl)cc1 [Compound 7c]
110 to 111 °C

Check the records and state melting point for COc1cc(S(=O)(=O)Nc2cccc3c2[nH]c2c(C)ccc(C)c23)cc(OC)c1OC [Compound 6i]
205 to 207 °C

Return melting point for the following compound: NS(=O)(=O)c1ccc(S(=O)(=O)Nc2cccc3cc[nH]c23)cc1 [Compound 5g]
215 to 216 °C

Indicate its recorded melting point; the compound in question is Cc1ccc(C)c2c1[nH]c1c(NS(=O)(=O)c3cccc(C(F)(F)F)c3)cccc12 [Compound 6j]
217 to 218 °C
